// data source = patent US9029366B2

molecular target: human mGluR5 (Homo sapiens); assay: Cell-based functional Ca2+ mobilization assay (FDSS), potentiation of glutamate EC20 response, HEK293A cells transfected with human mGluR5a (H10H or H12H cell line); conditions: HEK293-A, H10H cell line expressing recombinant human mGluR5; in presence of glutamate EC20; % of maximal glutamate response; ** = compound is an antagonist
Sequence (P41594 21-1180 isoform P41594-2 limits assumed): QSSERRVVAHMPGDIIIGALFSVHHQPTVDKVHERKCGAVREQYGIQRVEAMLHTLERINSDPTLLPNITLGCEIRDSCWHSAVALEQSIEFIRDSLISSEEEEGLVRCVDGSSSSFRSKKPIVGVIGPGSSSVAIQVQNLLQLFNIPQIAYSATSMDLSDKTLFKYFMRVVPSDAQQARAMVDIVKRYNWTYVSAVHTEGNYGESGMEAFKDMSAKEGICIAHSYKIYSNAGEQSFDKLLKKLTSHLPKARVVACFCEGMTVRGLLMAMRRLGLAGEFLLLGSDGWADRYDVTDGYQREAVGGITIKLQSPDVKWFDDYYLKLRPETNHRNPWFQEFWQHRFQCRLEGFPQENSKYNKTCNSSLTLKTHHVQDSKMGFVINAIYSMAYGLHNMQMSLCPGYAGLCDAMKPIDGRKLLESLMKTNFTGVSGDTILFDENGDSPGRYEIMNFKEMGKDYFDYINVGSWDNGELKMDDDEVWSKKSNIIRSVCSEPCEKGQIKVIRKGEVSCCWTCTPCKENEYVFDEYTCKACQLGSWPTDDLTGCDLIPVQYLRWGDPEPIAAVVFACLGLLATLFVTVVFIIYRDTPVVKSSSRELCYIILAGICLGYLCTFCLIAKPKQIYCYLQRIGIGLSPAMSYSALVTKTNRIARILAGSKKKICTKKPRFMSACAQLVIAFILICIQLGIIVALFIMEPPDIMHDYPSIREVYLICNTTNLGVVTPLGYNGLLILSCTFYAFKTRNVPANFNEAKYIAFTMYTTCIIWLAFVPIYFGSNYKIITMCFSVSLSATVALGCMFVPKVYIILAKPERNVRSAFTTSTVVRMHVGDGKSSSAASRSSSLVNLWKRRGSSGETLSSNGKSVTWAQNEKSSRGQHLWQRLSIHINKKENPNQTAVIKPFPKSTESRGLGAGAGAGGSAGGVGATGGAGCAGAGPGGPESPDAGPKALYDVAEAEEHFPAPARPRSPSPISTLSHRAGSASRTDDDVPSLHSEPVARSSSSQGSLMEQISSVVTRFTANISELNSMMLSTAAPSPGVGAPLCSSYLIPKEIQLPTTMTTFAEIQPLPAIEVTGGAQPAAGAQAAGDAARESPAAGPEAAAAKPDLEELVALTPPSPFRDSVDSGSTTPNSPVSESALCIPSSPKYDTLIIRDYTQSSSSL
RECORDED ENDPOINT: Emax (%)

[
  {
    "COMPOUND": "O=C(c1cnccn1)N1CCn2nc(OCc3ccccc3)cc2C1",
    "RECORDED ENDPOINT": "Emax",
    "DATA VALUE": 44
  },
  {
    "COMPOUND": "O=C(c1cccc(F)c1F)N1CCn2nc(OCc3ccccc3)cc2C1",
    "RECORDED ENDPOINT": "Emax",
    "DATA VALUE": 40
  },
  {
    "COMPOUND": "Cn1c(Cl)ccc1C(=O)N1CCn2nc(OCc3cccc(F)c3)cc2C1",
    "RECORDED ENDPOINT": "Emax",
    "DATA VALUE": 65
  },
  {
    "COMPOUND": "O=C(c1cccnc1)N1CCn2nc(OCc3ccccc3)cc2C1",
    "RECORDED ENDPOINT": "Emax",
    "DATA VALUE": 38
  },
  {
    "COMPOUND": "O=C(c1ccccc1)N1CCn2nc(OCc3ccc(F)cc3)cc2C1",
    "RECORDED ENDPOINT": "Emax",
    "DATA VALUE": 48
  }
]

P. Cc1ccc(C(=O)N2CCn3nc(OCc4ccccc4)cc3C2)o1
Q. Cn1cc(C(=O)N2CCn3nc(OCc4cccc(F)c4)cc3C2)c2ccccc21
R. O=C(N1CCn2nc(OCc3ccccc3)cc2C1)C12C3C4C5C3C1C5C42 (stereo not shown)
Req: Order the records, beginning with the lowest Emax and ending with the highest. Output the labels ranked as instructed.
Resp: Q, P, R

I. Cc1ccc(C(=O)N2CCn3nc(OCc4ccccc4)cc3C2)cn1
II. Cc1ncccc1C(=O)N1CCn2nc(OCc3ccccc3)cc2C1
Req: Which item exceeds the other in Emax, I or II ? Which one? Tell me its label.
Resp: I
(I: 44%, II: 28%)

a. O=C(c1ccc(F)cc1)N1CCn2nc(OCc3ccnc(Cl)c3)cc2C1
b. Cc1ccccc1COc1cc2n(n1)CCN(C(=O)c1ccc(F)cc1)C2
Req: Of a and b , whose reported Emax is the larger number? Label of pick, please.
Resp: b

P. O=C(c1ccc[nH]1)N1CCn2nc(OCc3ccccc3)cc2C1
Q. O=C(c1ccc(F)cc1F)N1CCn2nc(OCc3cccc(F)c3)cc2C1
R. N#Cc1cccc(COc2cc3n(n2)CCN(C(=O)c2ccccc2Cl)C3)c1
Req: Sort the compounds on Emax; start with the lowest figure. Output spec: labels arranged per the requested ranking.
Resp: R, P, Q
(R: 16%, P: 39%, Q: 68%)

a. CC(C)(C)CC(=O)N1CCn2nc(OCc3ccccc3)cc2C1
b. CCOc1ccccc1C(=O)N1CCn2nc(OCc3ccccc3)cc2C1
c. N#Cc1cccc(C(=O)N2CCn3nc(OCc4ccccc4)cc3C2)c1
d. CS(=O)(=O)c1cccc(COc2cc3n(n2)CCN(C(=O)c2ccc(F)cc2)C3)c1
Req: Please give the order of these compounds when sorted by Emax, largest value leading. Returns: the labels listed in the requested order.
Resp: a, c, d, b
